Data credit: patent US20130296258A1

# Target of assay: T1, cyno GPC3-SK-HEP1 (Macaca fascicularis, UniProt A0A2K5VK50)
# T1 construct: cell-surface protein on transfected cells; also called cynomolgus GPC3; cyno GPC3 transfected SK-Hep1 cells
# Assay overview: flow cytometry on SK-HEP1 cells stably transfected with cynomolgus GPC3, detection via rabbit anti-hNGAL antiserum and anti-rabbit IgG-PE
Test readout: EC50

Illustrative cases are given below, each with its answer.
1) PIE-G3E (designed binder, C-terminal Strep-tag II; also called Lcn2 mutein; not shown: C-terminal Strep-tag II) QDSTSDLIPAPPLSKVPLQQNFQDNQFHGKWYVVGSAGNHRLREDKDPRKMHATIYELKEDKSYNVTNVTFREKKCHYSIGTFVPGSQPGEFTLGKIKSNPGMTSFLVRVVSTNYNQHAMVFFKKVHQNREQFNITLYGRTKELTSELKENFIRFSKSLGLPENHIVFPVPIDQCIDGSAWSHPQFEK | 0.12 nM
2) PIE-G3A (designed binder, Made in E. coli from phNGAL98 with a C-terminal Strep-tag II; also called Lcn2 mutein; not shown: C-terminal Strep-tag II) QDSTSDLIPAPPLSKVPLQQNFQDNQFHGKWYVVGIAGNWILREDKDPPKMRATIYELKEDKSYNVTRVRFDEKKCGYGIATFVPGSQPGEFTLGVIKSRPGITSDLVRVVSTNYNQHAMVFFKFVKQNREYFGITLYGRTKELTSELKENFIRFSKSLGLPENHIVFPVPIDQCIDGSAWSHPQFEK | > 100 nM

Consider the record given below.
Tell me its EC50 given PIE-G3C (designed binder, C-terminal Strep-tag II; also called Lcn2 mutein; not shown: C-terminal Strep-tag II) QDSTSDLIPAPPLSKVPLQQNFQDNQFHGKWYVVGRAGNVALREDKDPPKMRATIYELKEDKSYNVTNVRFAMKKCMYSIGTFVPGSQPGEFTLGQIKSEPGNTSNLVRVVSTNYNQHAMVFFKEVYQNREIFFITLYGRTKELTSELKENFIRFSKSLGLPENHIVFPVPIDQCIDGSAWSHPQFEK as the entry.
0.2 nM
